- assayRemarks: in vitro
- measurementSetup: human, L02 cells and Raji cells
- Description: Selectivity index, ratio of IC50 for human L02 cells to IC50 for human Raji cells
Some compounds, each annotated with its measured selectivity ratio.
recordedMetric: selectivity ratio

>>> print(df.to_string())
                                 smilesrepr  recordedmeasurement
0  C/C(O)=C(\C#N)C(=O)Nc1cc(O[C@@H](C)C(F)(F)F)c(C(=O)Nc2c(Br)cccc2Br)cc1F                 13.1
1  C/C(O)=C(\C#N)C(=O)Nc1cc(O[C@@H](C)C(F)(F)F)c(C(=O)Nc2c(F)cccc2Cl)cc1F                 37.2
2  C/C(O)=C(\C#N)C(=O)Nc1cc(O[C@@H](C)C(F)(F)F)c(C(=O)Nc2c(Cl)cccc2Cl)cc1F                 14.1
3  C/C(O)=C(\C#N)C(=O)Nc1cc(O[C@@H](C)C(F)(F)F)c(C(=O)Nc2c(F)cccc2Br)cc1F                 37.7
4  C/C(O)=C(\C#N)C(=O)Nc1cc(O[C@@H](C)C(F)(F)F)c(C(=O)Nc2c(Cl)cccc2Br)cc1F                 15.8
5  C/C(O)=C(\C#N)C(=O)Nc1cc(OC(C)C)c(C(=O)Nc2c(Cl)cccc2Cl)cc1F                  5.8
6  CCOc1cc(NC(=O)/C(C#N)=C(/C)O)c(F)cc1C(=O)Nc1c(Cl)cccc1Cl                  4.7
7  C/C(O)=C(\C#N)C(=O)Nc1cc(OC(C)C)c(C(=O)Nc2c(F)cccc2Br)cc1F                  6.1
